ASSAY_READOUT: melting point

Record excerpt, results attached:
* O=C(/C=C/c1ccccc1S(=O)(=O)Nc1ccccc1)NO [PX116242] | 205 to 206.5 °C
* O=C(/C=C/c1ccc(NS(=O)(=O)c2ccc(-c3ccccc3)cc2)cc1)NO [PX117793] | 190 to 191.5 °C
* O=C(/C=C/c1ccc(S(=O)(=O)Nc2ccc(Br)cc2)cc1)NO [PX117795] | 219 to 220.5 °C
* Cc1ccc(NS(=O)(=O)c2cccc(/C=C/C(=O)NO)c2)cc1 [PX106508] | 200 °C
* COc1ccc(C(F)(F)F)cc1NS(=O)(=O)c1cccc(/C=C/C(=O)NO)c1 [PX117791] | 207 °C (dec.)

Indicate its recorded melting point; the compound in question is O=C(/C=C/c1cccc(S(=O)(=O)NCc2cccnc2)c1)NO [PX117250]
191 °C

Indicate its recorded melting point; the compound in question is COc1ccc(S(=O)(=O)Nc2ccc(/C=C/C(=O)NO)cc2)cc1OC [PX117794]
178.5 to 179 °C

Indicate its recorded melting point; the compound in question is O=C(CCCCCCS(=O)(=O)Nc1ccccc1)NO [PX117236]
94 to 95 °C

Indicate its recorded melting point; the compound in question is O=C(/C=C/C#Cc1ccc(S(=O)(=O)Nc2ccccc2)cc1)NO [PX117453]
161 to 163 °C

Indicate its recorded melting point; the compound in question is O=C(/C=C/c1cccc(S(=O)(=O)Nc2ccc3ccccc3c2)c1)NO [PX117445]
164 °C

Indicate its recorded melting point; the compound in question is O=C(/C=C/c1cccc(NS(=O)(=O)c2ccc(-c3ccccc3)cc2)c1)NO [PX117781]
115 °C

Values from patent US7407988B2
